Every entry's value here was drawn from patent US20230355632A1.

Assay: Pharmacokinetic (PK) study in Sprague-Dawley rats, plasma, oral (gavage) dose
Format: in vivo
Settings: rat; plasma; single oral (gavage) dose, fasted male Sprague Dawley rats, target dose 30 mg/kg (paraxanthine-d6 31 mg/kg, adjusted for MW)
Property: Cmax (ng/mL)
State just the number; it will be interpreted in ng/mL.

[
  {
    "Compound String": "Cn1c(=O)[nH]c2ncn(C)c2c1=O",
    "Cmax (ng/mL)": 38900
  }
]

Proceeding to the next compound to report its Cmax.
For the compound [2H]C([2H])([2H])n1c(=O)[nH]c2ncn(C([2H])([2H])[2H])c2c1=O , give its reported Cmax.
42400
